MEASURED_ON: Human recombinant neuroligin 4-X linked (NLGN4X) (Homo sapiens)
Sequence (Q8N0W4 42-676 limits assumed): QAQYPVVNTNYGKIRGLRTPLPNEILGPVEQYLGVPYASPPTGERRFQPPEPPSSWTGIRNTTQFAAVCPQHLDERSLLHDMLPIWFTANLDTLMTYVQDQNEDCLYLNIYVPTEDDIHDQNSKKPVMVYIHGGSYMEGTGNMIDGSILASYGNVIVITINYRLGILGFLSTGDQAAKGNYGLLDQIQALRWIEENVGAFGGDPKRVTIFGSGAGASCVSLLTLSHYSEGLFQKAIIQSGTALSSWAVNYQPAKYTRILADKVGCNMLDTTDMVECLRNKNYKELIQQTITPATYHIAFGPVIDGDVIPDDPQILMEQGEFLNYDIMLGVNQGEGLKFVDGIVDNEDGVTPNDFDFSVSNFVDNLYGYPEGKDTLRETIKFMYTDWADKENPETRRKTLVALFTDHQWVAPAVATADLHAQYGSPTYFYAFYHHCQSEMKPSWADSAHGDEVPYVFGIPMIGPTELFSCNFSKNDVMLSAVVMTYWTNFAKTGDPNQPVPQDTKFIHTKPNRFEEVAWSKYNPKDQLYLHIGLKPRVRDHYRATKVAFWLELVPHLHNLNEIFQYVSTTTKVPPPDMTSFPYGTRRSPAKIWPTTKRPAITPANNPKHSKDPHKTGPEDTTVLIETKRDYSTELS
METHOD_SUMMARY: Microscale thermophoresis (MST) assay
Format: binding
EXPERIMENTAL_CONDITIONS: MST, PBS buffer pH 7.4, 25 °C; read-out: kD
PARAMETER_MEASURED: Kd (nM)
Response body: numeric value in nM, unit text excluded.

Kindly note the recorded Kd for CN1C(=O)[C@]23CC4=CC=C[C@H](O)[C@H]4N2C(=O)[C@@]1(CO)SS3 , which is 1520

src = paper PMC5680308
